# Assay Procedure: recombinant UMI read abundance after kanamycin selection (control-corrected) (log10(CPM+1)); higher = more efficient recombination; extreme values may be limits of the assay; sequences stand for … in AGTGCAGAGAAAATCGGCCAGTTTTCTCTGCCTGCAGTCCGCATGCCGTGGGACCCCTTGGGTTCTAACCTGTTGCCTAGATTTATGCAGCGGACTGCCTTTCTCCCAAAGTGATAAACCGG…AGGTTGGTTTCACT; site = the 11-nt donor
Property Name: recombinant UMI read abundance (log10)
Output: the number by itself.

Some solved cases for reference:
{"columns": ["Biosequence", "recombinant UMI read abundance (log10)"],
 "data": [
  ["ACCCTAGCATGGACCGGTTTTCCCGGTAATCCGTATTTGAT (site ACCCTAGCTAT)", 0.558],
  ["CGATCTGCATGGACCGGTTTTCCCGGTAATCCGTATTTGCT (site CGATCATCTAG)", 0],
  ["AGTCCAACATGGACCGGTTTTCCCGGTAATCCGTATTTGTA (site GGTCCAACTTA)", 0.172],
  ["CGGGAGACATGGACCGGTTTTCCCGGTAATCCGTATTTGCC (site CGGGAGTCTGG)", 0.663],
  ["GATTATCCATGGACCGGTTTTCCCGGTAATCCGTATTTGCA (site GATTATCCTAG)", 0]
]}

Could you tell me which recombinant UMI read abundance (log10) is on file for TTAGCTGCATGGACCGGTTTTCCCGGTAATCCGTATTTGAG (site TTAGCTGCTCG) ?
0.0144

Could you tell me which recombinant UMI read abundance (log10) is on file for GCGAAAGCATGGACCGGTTTTCCCGGTAATCCGTATTTGCT (site GCGAAAACTAG) ?
0

Could you tell me which recombinant UMI read abundance (log10) is on file for GTCTACACATGGACCGGTTTTCCCGGTAATCCGTATTTGAG (site GTCTACACTCT) ?
0.832

Could you tell me which recombinant UMI read abundance (log10) is on file for GCTACTTCATGGACCGGTTTTCCCGGTAATCCGTATTTGCC (site GCTACTTCTGG) ?
1.34

====

// recombinant UMI read abundance (log10) lookup, one value per entry
# Assay Procedure: recombinant UMI read abundance after kanamycin selection (control-corrected) (log10(CPM+1)); higher = more efficient recombination; extreme values may be limits of the assay; sequences stand for … in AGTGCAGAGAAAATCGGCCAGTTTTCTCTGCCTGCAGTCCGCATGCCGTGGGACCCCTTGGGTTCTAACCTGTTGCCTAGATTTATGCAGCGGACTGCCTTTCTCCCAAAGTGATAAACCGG…AGGTTGGTTTCACT; site = the 11-nt donor
Output: the number by itself.

Some solved cases for reference:
{"columns": ["Biosequence", "Assay Value"],
 "data": [
  ["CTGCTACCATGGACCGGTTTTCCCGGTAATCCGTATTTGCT (site TTGCTACCTAG)", 0.00622],
  ["AGTGTAGCATGGACCGGTTTTCCCGGTAATCCGTATTTGGG (site AGTGTAGCTCC)", 0.00834]
]}

Moving on to another sequence below.
Could you tell me which recombinant UMI read abundance (log10) is on file for TAGCCTCCATGGACCGGTTTTCCCGGTAATCCGTATTTGGT (site TAGCCTTCTAC) ?
0

====

# Assay Procedure: recombinant UMI read abundance after kanamycin selection (control-corrected) (log10(CPM+1)); higher = more efficient recombination; extreme values may be limits of the assay; sequences stand for … in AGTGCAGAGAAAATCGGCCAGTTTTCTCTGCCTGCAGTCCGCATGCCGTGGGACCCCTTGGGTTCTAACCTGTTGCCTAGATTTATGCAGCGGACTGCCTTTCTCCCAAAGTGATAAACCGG…AGGTTGGTTTCACT; site = the 11-nt donor
Property Name: recombinant UMI read abundance (log10)
Output: the number by itself.

{"columns": ["Biosequence", "recombinant UMI read abundance (log10)"],
 "data": [
  ["GCTTCCCCATGGACCGGTTTTCCCGGTAATCCGTATTTGAT (site GCTTGCCCTAT)", 0.00758]
]}

Could you tell me which recombinant UMI read abundance (log10) is on file for GGATAGACATGGACCGGTTTTCCCGGTAATCCGTATTTGCC (site GAATAGACTGG) ?
1.5

Could you tell me which recombinant UMI read abundance (log10) is on file for GGATAGACATGGACCGGTTTTCCCGGTAATCCGTATTTGGC (site GGATAGACTGT) ?
2.32

Could you tell me which recombinant UMI read abundance (log10) is on file for ACAGAATCATGGACCGGTTTTCCCGGTAATCCGTATTTGCA (site ACAGTATCTTG) ?
1.8

Could you tell me which recombinant UMI read abundance (log10) is on file for CCAAACACATGGACCGGTTTTCCCGGTAATCCGTATTTGAT (site CCAAACACTAT) ?
1.8

Could you tell me which recombinant UMI read abundance (log10) is on file for TGCGGAACATGGACCGGTTTTCCCGGTAATCCGTATTTGTT (site TGCGGAACTAA) ?
0.718

Could you tell me which recombinant UMI read abundance (log10) is on file for TATTTGGCATGGACCGGTTTTCCCGGTAATCCGTATTTGTG (site AATTTGGCTCA) ?
0.0279

Could you tell me which recombinant UMI read abundance (log10) is on file for ACACGATCATGGACCGGTTTTCCCGGTAATCCGTATTTGTC (site ACACGAACTGA) ?
0.373

====

// recombinant barcode read abundance (log10) lookup, one value per entry
# Assay Procedure: recombinant barcode read abundance after kanamycin selection (control-corrected) (log10(CPM+1)); higher = more efficient recombination; sequences stand for … in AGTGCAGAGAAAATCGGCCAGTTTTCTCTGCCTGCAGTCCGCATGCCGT…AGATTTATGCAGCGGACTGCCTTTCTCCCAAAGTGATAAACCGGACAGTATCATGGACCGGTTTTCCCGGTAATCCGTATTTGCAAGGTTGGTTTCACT; site = the 11-nt target
Output: the number by itself.

Some solved cases for reference:
{"columns": ["Biosequence", "Assay Value"],
 "data": [
  ["CCTTACCCTTGGGTTCTAACCTGTTGCCT (site CCTTACCCTAG)", 1.11],
  ["ATGAGAACTTGGGTTCTAACCTGTTGCCT (site ATGAGAACTAG)", 1.5],
  ["GCACCACCTTGGGTTCTAACCTGTTGCCT (site GCACCACCTAG)", 1.06],
  ["TAGTGTCCTTGGGTTCTAACCTGTTGCCT (site TAGTGTCCTAG)", 1.11],
  ["GAGACTCCTTGGGTTCTAACCTGTTGCTA (site GAGACTCCTTA)", 0.392]
]}

Could you tell me which recombinant barcode read abundance (log10) is on file for CTAACCTCTTGGGTTCTAACCTGTTGCAT (site CTACCCTCTAT) ?
0.0596

Could you tell me which recombinant barcode read abundance (log10) is on file for ACAAAGACTTGGGTTCTAACCTGTTGCGC (site ACAGAGACTGC) ?
0.326

Could you tell me which recombinant barcode read abundance (log10) is on file for GTGCGCTCTTGGGTTCTAACCTGTTGCGC (site GTGCGCTCTGC) ?
0.145

Could you tell me which recombinant barcode read abundance (log10) is on file for CTTACAGCTTGGGTTCTAACCTGTTGCCT (site CTTACGGCTAG) ?
0.0141

Could you tell me which recombinant barcode read abundance (log10) is on file for TTCAAGACTTGGGTTCTAACCTGTTGCCT (site TTCAAGTCTAG) ?
0.241

Could you tell me which recombinant barcode read abundance (log10) is on file for GGCTTACCTTGGGTTCTAACCTGTTGCCT (site AGCTTACCTAG) ?
0.0239

Could you tell me which recombinant barcode read abundance (log10) is on file for TCCCGACCTTGGGTTCTAACCTGTTGCCT (site TCCCGAGCTAG) ?
0.107

Could you tell me which recombinant barcode read abundance (log10) is on file for CCTTCTCCTTGGGTTCTAACCTGTTGCAT (site GTACGATCTCC) ?
0.146

====

# Assay Procedure: recombinant UMI read abundance after kanamycin selection (control-corrected) (log10(CPM+1)); higher = more efficient recombination; extreme values may be limits of the assay; sequences stand for … in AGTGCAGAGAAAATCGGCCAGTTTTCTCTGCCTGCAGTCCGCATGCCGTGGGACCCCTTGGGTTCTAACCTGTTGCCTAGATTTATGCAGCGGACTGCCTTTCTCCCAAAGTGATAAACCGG…AGGTTGGTTTCACT; site = the 11-nt donor
Property Name: recombinant UMI read abundance (log10)
Output: the number by itself.

{"columns": ["Biosequence", "Property Name", "Assay Value"],
 "data": [
  ["GAGAACCCATGGACCGGTTTTCCCGGTAATCCGTATTTGTC (site GAGAACCCTGA)", "recombinant UMI read abundance (log10)", 0],
  ["GTAGATACATGGACCGGTTTTCCCGGTAATCCGTATTTGAC (site GTAGGTACTGT)", "recombinant UMI read abundance (log10)", 1.38],
  ["GCTTCTGCATGGACCGGTTTTCCCGGTAATCCGTATTTGCC (site GCTTCTGCTGG)", "recombinant UMI read abundance (log10)", 1.86]
]}

Could you tell me which recombinant UMI read abundance (log10) is on file for ATGTAGGCATGGACCGGTTTTCCCGGTAATCCGTATTTGGG (site ATGTAGGCTCC) ?
0.167

Could you tell me which recombinant UMI read abundance (log10) is on file for TTTTCCCCATGGACCGGTTTTCCCGGTAATCCGTATTTGTA (site TTTTCCCCTTA) ?
0.0384
